Each item that follows carries a reported growth (log2).
System: Caenorhabditis elegans
Test protocol: growth (movement index) relative to DMSO control, secondary screen (log2 fold change); higher = more growth (less anthelmintic activity)
Recorded conditions: 10 µM, 5 days, 20 °C, stage: L1 start
Endpoint name: growth (log2)

>>> df
                                   molecule  numeric_value
0  CC(=O)OCC1OC([S-])C(OC(C)=O)C(OC(C)=O)C1OC(C)=O.CCP(CC)CC.[Au+] (stereo unspecified)          -7.16
1  CC(C)(C)CN1C(=O)C(c2ccccc2)(c2ccccc2)N=C1N          -5.87
2   COC(=O)Nc1nc2cc(C(=O)c3ccccc3)ccc2[nH]1          -5.72
3  O=C(Nc1nc(-c2ccccn2)cs1)C1CC1c1ccccc1F (stereo unspecified)         -0.836
4  CC(C)n1nc(-c2cc3c(Cl)cccc3[nH]2)c2c(N)ncnc21          -1.13
5  COC(=O)C1=C(C)NC(C)=C(C(=O)OC(C)C)C1c1cccc2nonc12 (stereo unspecified)          -1.42
